# measured-on: NS3 (Hepatitis C virus)
# test-details: Inhibitory constant against hepatitis C virus NS3 protease
# Design: species or system Hepacivirus hominis

substance: Ac-DEMEEC-OH
measured-on: NS3 (Hepatitis C virus)
Ki / nM: 600

----------
# measured-on: NS3 (Hepatitis C virus, UniProt A3EZJ3)
# Sequence (A3EZJ3 whole entry): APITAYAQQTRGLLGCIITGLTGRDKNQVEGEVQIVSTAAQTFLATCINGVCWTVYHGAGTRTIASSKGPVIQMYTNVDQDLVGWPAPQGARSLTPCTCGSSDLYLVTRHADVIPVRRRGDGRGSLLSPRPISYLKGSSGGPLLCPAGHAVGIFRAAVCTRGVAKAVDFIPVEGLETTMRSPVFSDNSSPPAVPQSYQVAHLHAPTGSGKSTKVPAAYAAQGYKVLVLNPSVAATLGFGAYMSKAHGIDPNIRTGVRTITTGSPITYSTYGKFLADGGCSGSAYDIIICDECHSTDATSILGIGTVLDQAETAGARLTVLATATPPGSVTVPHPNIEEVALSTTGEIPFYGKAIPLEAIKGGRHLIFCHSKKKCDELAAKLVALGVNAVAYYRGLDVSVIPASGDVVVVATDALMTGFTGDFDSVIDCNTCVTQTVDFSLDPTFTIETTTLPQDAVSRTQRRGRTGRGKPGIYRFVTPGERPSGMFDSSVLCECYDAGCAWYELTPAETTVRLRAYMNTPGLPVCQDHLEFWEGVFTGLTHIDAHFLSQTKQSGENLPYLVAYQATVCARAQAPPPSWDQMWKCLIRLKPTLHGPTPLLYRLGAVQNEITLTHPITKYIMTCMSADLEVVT
# test-details: Inhibitory concentration against hepatitis C virus helicase; range 0.6-0.7
# Set-up: species or system Hepacivirus hominis

structure-as-smiles: CN1CCN(CCCN2c3ccccc3Sc3ccc(C(F)(F)F)cc32)CC1
IC50 / nM: 700

----------
// values below are reported pIC50
# measured-on: Hepatitis C virus NS4A protein (Hepatitis C virus, UniProt D2K2A8)
# Sequence (D2K2A8 whole entry): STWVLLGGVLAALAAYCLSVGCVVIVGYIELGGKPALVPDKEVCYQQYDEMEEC
# test-details: Inhibitory concentration against hepatitis C virus NS4A active site
# Design: species or system Hepacivirus hominis
pIC50: −log10 of the molar value.

substance: H-KGSLVIRGVIVVCK-OH
pIC50: 6.70
--
substance: H-SLVIRGVIV-OH
pIC50: 6.22

Hey, just so you know, these numbers are from ChEMBL document CHEMBL1145280.
